tested on: KM12 colon; assay: NCI-60 one-dose screen, 48 h (100 = growth as untreated, 0 = no growth, -100 = all killed); conditions: 10 µM unless noted
The panel holds about 83,000 compounds, 20% with a hit somewhere; the sample as a whole holds those more often.
Classify as follows. Reported growth greater than or equal to 50%: YES. Reported growth below: NO.

INSERT INTO assay_data (compound, tgt, class_label) VALUES
  ('COc1ccc(C(c2cc(OC)c(OC)c(OC)c2)N2CCCCC2)cc1 (stereo not given)', 'KM12 colon', 'NO'),
  ('Cc1nc2ccccc2c(/C=C/c2ccc(F)cc2)c1C(=O)/C=C/c1ccccc1', 'KM12 colon', 'NO'),
  ('CCN1C2CCC1/C(=C\c1ccccc1)C(=O)/C2=C/c1ccccc1', 'KM12 colon', 'NO'),
  ('Cc1ncc(C(=O)Nc2ccc(CN3CCN(C)CC3)c(C(F)(F)F)c2)cc1C#Cc1cnc(N)c2ccc(C#N)cc12', 'KM12 colon', 'NO'),
  ('CCOC(=O)C/C(=N\Nc1cc(=O)[nH]c2ccc(C)cc12)C(=O)OCC', 'KM12 colon', 'YES'),
  ('CCN(CC)CCOc1ccc(Nc2ncc3cc(-c4c(Cl)cccc4Cl)c(=O)n(CCOC)c3n2)cc1', 'KM12 colon', 'NO'),
  ('CCOC(=O)c1nnn(Cc2cc(=O)oc3ccc(O)cc23)c1C', 'KM12 colon', 'YES'),
  ('C[C@@H]1NC(=O)[C@H](Cc2ccccc2)N(Cc2cccnc2)C1=O', 'KM12 colon', 'YES'),
  ('Cc1ccc(Cc2cnc(NC(=O)/C=C/c3ccc(C)o3)s2)cc1', 'KM12 colon', 'NO'),
  ('O=C(Cc1ccc(/C=C/C(=O)c2ncc[nH]2)cc1)Nc1cc(F)c(F)c(F)c1', 'KM12 colon', 'NO'),
  ('N#CSc1c[nH]c2ccc(/C=C/C(=O)/C=C(O)/C=C/c3ccc4[nH]cc(SC#N)c4c3)cc12', 'KM12 colon', 'NO'),
  ('O=C1/C(=C/c2cccc(Br)c2)COc2ccc(O)cc21', 'KM12 colon', 'NO'),
  ('COc1cc(/C=C/C(=O)N2CCN(C(=O)c3cc(OC)c(OC)c(OC)c3)CC2)ccc1OCCCOc1cc2c(cc1OC)C(=O)N1CCC[C@H]1C=N2', 'KM12 colon', 'NO'),
  ('COc1ccc(/C=C(/C(=O)N2CCNCC2)c2cc(OC)c(OC)c(OC)c2)cc1O', 'KM12 colon', 'NO'),
  ('CN(C)c1ccc(CNCCO)cc1', 'KM12 colon', 'YES'),
  ('Fc1ccc2[nH]cc(-c3nc(-c4c[nH]c5c(Cl)nccc45)cs3)c2c1', 'KM12 colon', 'NO'),
  ('Clc1ccc(-c2nc(C(Cl)Cl)nc3cc(-c4ccccc4)nn23)cc1', 'KM12 colon', 'NO'),
  ('O=c1oc2c(cc1-c1ccccc1)c[n+]([O-])c1ccccc21', 'KM12 colon', 'YES'),
  ('CN(C)CCC(CCN(C)C)(C(=O)O)c1ccccc1', 'KM12 colon', 'YES'),
  ('CC(=O)c1sc(-c2ccc(F)cc2)cc1O', 'KM12 colon', 'YES'),
  ('Nc1c(C(=O)Nc2cccc3ncccc23)sc2nc3c(cc12)CN(Cc1ccccc1)CC3', 'KM12 colon', 'YES'),
  ('Oc1c(CN2CCC(N3CCOCC3)CC2)cc(Cc2cc(CN3CCC(N4CCOCC4)CC3)c(O)c3ncccc23)c2cccnc12', 'KM12 colon', 'NO'),
  ('CNC(=O)c1cc(Oc2ccc3c(c2)sc2nc(-c4cc(C(F)(F)F)cc(C(F)(F)F)c4)cn23)ccn1', 'KM12 colon', 'YES'),
  ('Cc1nc2sc(C(=O)Nc3cccc4ccccc34)c(N)c2cc1C(=O)c1ccccc1', 'KM12 colon', 'NO'),
  ('COc1cc(/C=N/NC(=O)c2ccc(-n3cc(-c4ccccc4)nn3)cc2)cc(OC)c1OC', 'KM12 colon', 'YES'),
  ('CCn1cc(C(=O)N/N=C/c2ccccc2)c(=O)c2cc(F)c(N3CCNC(C)C3)c(F)c21 (stereo not given)', 'KM12 colon', 'NO'),
  ('CCCOC(=O)Nc1nc2ccc(SCC)cc2s1', 'KM12 colon', 'YES'),
  ('COc1ccc(/C=C(\C(=O)NCc2cccnc2)S(=O)(=O)c2ccccc2)cc1OC', 'KM12 colon', 'YES'),
  ('N#Cc1c(-c2ccc(Br)cc2)nc2c(N=Nc3ccc(S(N)(=O)=O)cc3)c(N)nn2c1N', 'KM12 colon', 'YES'),
  ('CN(C)CCn1c(=O)c2ccccc2n2nc3ccccc3c12', 'KM12 colon', 'YES'),
  ('Cc1nn(C)c2ncnc(N/N=C/c3cccc(O)c3O)c12', 'KM12 colon', 'NO'),
  ('S=c1ccnc[nH]1', 'KM12 colon', 'YES'),
  ('O=C(OCc1ccc2c(Cl)cc(Cl)c(O)c2n1)N1CCN(C(=O)c2cc3ccccc3[nH]2)CC1', 'KM12 colon', 'NO'),
  ('COc1cc(-c2ccc[nH]2)[nH]c1/C=C1\N=C(C)C(CC(=O)OCC(C)(C)C)=C1C', 'KM12 colon', 'NO'),
  ('Cc1ccc(S(=O)(=O)OCC#CCOS(=O)(=O)c2ccc(C)cc2)cc1', 'KM12 colon', 'YES'),
  ('Cc1cc(N2CCN(CC(=O)Nc3ccc4c(ccn4Cc4ccccc4)c3)CC2)nc(N2CCOCC2)n1', 'KM12 colon', 'YES'),
  ('ClC(Cl)c1nc(-c2ccccc2)n2nc(-c3ccccc3)cc2n1', 'KM12 colon', 'NO'),
  ('Cc1cc(Cl)nc(N2CCN(CCNc3ccnc4cc(Cl)ccc34)CC2)n1', 'KM12 colon', 'YES'),
  ('C=C1C(=O)O[C@H]2[C@H]1CC/C(COC(=O)NCc1ccc(Cn3c(=O)sn(-c4ccc(I)cc4)c3=O)cc1)=C\CC[C@@]1(C)O[C@@H]21', 'KM12 colon', 'YES'),
  ('CCOc1ccc(NC(=O)Nc2ccc(OCC)cc2)cc1', 'KM12 colon', 'YES');

====

tested on: KM12 colon; assay: NCI-60 one-dose screen, 48 h (100 = growth as untreated, 0 = no growth, -100 = all killed); settings: 10 µM unless noted
About 83,000 compounds went through this panel and 20% of them were active in at least one assay; those are over-represented in the sample as a whole. Activity calls are given as the source filed them. The calls were made as follows: active = growth percent below 10; inactive = the rest.
reported.property: growth

INSERT INTO assay_data (compound, tgt, test_result) VALUES
  ('COc1cccc(-c2cn3nc(-c4cn(C)c5ccccc45)sc3n2)c1', 'KM12 colon', '72.6% (inactive)'),
  ('C#CCOc1ccc2nc(CCl)c(Cl)c(Nc3cccc(C(F)(F)F)c3)c2c1', 'KM12 colon', '93.6% (inactive)'),
  ('CN1c2ccccc2S(=O)(=O)n2c(SCC(=O)Nc3nc4ccc(F)cc4s3)nnc21', 'KM12 colon', '97.7% (inactive)'),
  ('CCN1C(=O)N(c2ccccc2)C2NC(=S)N(/N=C/C=C/c3ccccc3OC)C21 (stereo not given)', 'KM12 colon', '11.3% (inactive)'),
  ('C=C1C(=O)O[C@@H]2C3C(=C(C)CC[C@@H]12)CC1O[C@]13C (stereo not given in full)', 'KM12 colon', '102% [6.75 µM] (inactive)');

====

tested on: M14 melanoma; test: NCI-60 one-dose screen, 48 h (100 = growth as untreated, 0 = no growth, -100 = all killed); settings: 10 µM unless noted
Compounds without any hit were thinned out: in the full panel of roughly 83,000, 20% have a hit. Activity calls are given as the source filed them. How the source made its calls: active means growth percent below 10; inactive means the rest.
reported.property: growth

INSERT INTO assay_data (compound, tgt, test_result) VALUES
  ('Cc1oc(-c2ccc(Cl)cc2)nc1C1=NN(C(=O)c2ccncc2)C(c2ccccc2)C1 (centres undefined)', 'M14 melanoma', '99.2% (inactive)'),
  ('COc1ccc(NC(=O)c2ccc(Nc3ncnc4c3cnn4-c3cccc(F)c3)cc2)cc1', 'M14 melanoma', '98.4% (inactive)'),
  ('COc1ccc(C2[C@@H](Cl)C(=O)N2c2cc(OC)c(OC)c(OC)c2)cc1Cl (some centres undefined)', 'M14 melanoma', '-4.46% (active)'),
  ('CCOC(=O)c1nnn(Cc2cc(=O)oc3ccc(O)cc23)c1C', 'M14 melanoma', '100% (inactive)'),
  ('CCCCCc1ccc(S(=O)(=O)Nc2cc(-c3csc(NC(C)=O)n3)ccc2N2CCN(C)CC2)cc1', 'M14 melanoma', '-52.4% (active)'),
  ('COc1ccc(-c2nc3ccc(C)cc3c3c2c(=O)n(C)c(=O)n3C)cc1OC', 'M14 melanoma', '109% (inactive)'),
  ('C#COc1cccc(Nc2ncnc3cc(NC(=O)[C@H](C)Cl)ccc23)c1', 'M14 melanoma', '11.7% [6.25 µM] (inactive)'),
  ('O=C(O)CCCCCCCCCCN1C(=O)/C(=C2/C(=O)N(CC(=O)O)c3ccc(Br)cc32)SC1=S', 'M14 melanoma', '96.3% (inactive)'),
  ('CSc1ccc2c3c(n(CCCn4ccnc4)c(=O)c2c1)-c1ccccc1C3=O', 'M14 melanoma', '26.6% (inactive)');

# credit: PubChem BioAssay (NCI)
